- experimental_system: Cytochrome P450 3A4 (Homo sapiens) (UniProt P08684)
- Sequence (P08684 whole entry, looked up): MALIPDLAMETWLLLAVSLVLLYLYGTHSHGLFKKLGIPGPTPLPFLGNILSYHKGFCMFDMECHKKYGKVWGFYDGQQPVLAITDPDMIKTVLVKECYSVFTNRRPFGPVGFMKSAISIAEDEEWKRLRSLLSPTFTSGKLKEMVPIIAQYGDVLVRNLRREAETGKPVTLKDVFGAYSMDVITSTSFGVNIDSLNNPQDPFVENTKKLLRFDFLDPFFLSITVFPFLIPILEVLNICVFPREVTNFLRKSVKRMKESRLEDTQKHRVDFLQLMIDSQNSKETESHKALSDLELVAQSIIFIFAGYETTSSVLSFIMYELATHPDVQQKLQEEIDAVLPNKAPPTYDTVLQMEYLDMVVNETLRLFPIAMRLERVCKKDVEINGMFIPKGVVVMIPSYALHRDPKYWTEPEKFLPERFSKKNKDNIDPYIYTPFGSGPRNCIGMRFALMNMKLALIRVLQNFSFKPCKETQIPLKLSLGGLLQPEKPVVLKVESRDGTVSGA
- protocol_notes: Cytochrome panel assay with activity outcomes
- test_parameters: recombinant CYP, pro-luciferin dealkylation, luminescence, p450-cyp3a4; series mostly up to 57.1 µM
About 5,100 (32%) of roughly 16,000 compounds were called active. Not shown: some 25% with an inconclusive outcome. The call rests on the fitted dose curve; in most records, active means well fitted curve in the direction sought with a large enough effect; inconclusive means small, poorly fitted or top-dose-only effect, or effect the other way; inactive means no such curve, though single readings can be large or run the other way. This is one part of the list.
A correct response names exactly one class from true (1) = active, false (0) = inactive

As a guide, the following entries are already answered.
INSERT INTO assay_data (molecule, assigned_class) VALUES
  ('CCNc1ncc2nc(-c3ccc(Cl)cc3)c(=O)n(Cc3cccc(OC)c3)c2n1', 'false (0)'),
  ('CC(=O)N=c1sccn1CC(=O)c1ccc([N+](=O)[O-])cc1', 'true (1)'),
  ('COCCCNC(=O)C1C2C=CC3(CN(Cc4ccc(C)cc4)C(=O)C13)O2 (stereo unspecified)', 'true (1)'),
  ('O=c1[nH]c2ccccc2c2ccccc12', 'false (0)'),
  ('CCOC(=O)/C(C#N)=C1/C=CN(C)C=N1', 'false (0)');

# fetch the recorded call for CCNc1ncc2nc(-c3ccccc3)c(=O)n(Cc3cccc(OC)c3)c2n1 here
true (1)

# fetch the recorded call for COc1ncnc(NS(=O)(=O)c2ccc(N)cc2)c1OC here
false (0)

# fetch the recorded call for COc1ccc(CCN=CC2=C(O)CC(C)(C)CC2=O)cc1 here
true (1)

# fetch the recorded call for Nc1nc(NCc2ccccc2)nc(Nc2cccc(F)c2)c1[N+](=O)[O-] here
false (0)

# fetch the recorded call for Cc1cc(=O)c2ccccc2[nH]1 here
false (0)

###

- experimental_system: Cytochrome P450 3A4 (Homo sapiens)
- protocol_notes: Cytochrome panel assay with activity outcomes
- test_parameters: recombinant CYP, pro-luciferin dealkylation, luminescence, p450-cyp3a4; series mostly up to 57.1 µM
Out of some 16,000 compounds screened, about 5,100 (32%) were called active. Roughly 25% stayed inconclusive and do not appear here. Calls follow the shape of the dose curve; as a rule, active = well fitted curve in the direction sought with a large enough effect; inconclusive = small, poorly fitted or top-dose-only effect, or effect the other way; inactive = no such curve, though single readings can be large or run the other way. The list shows a part of the results.
A correct response names exactly one class from active, inactive

As a guide, the following entries are already answered.
INSERT INTO results (compound, assigned_class) VALUES
  ('CCn1c(SCC(=O)NC(=O)NCc2ccco2)nnc1-c1cccs1', 'active'),
  ('CCOC(=O)C1(S(=O)(=O)c2ccc(Cl)cc2)CCN(Cc2ccc(Cl)cc2)CC1', 'active'),
  ('Cc1nc2cnc(N(C)C)nc2n(Cc2ccc(F)cc2)c1=O', 'active'),
  ('COc1ccc(-n2c(=O)cnc3cnc(N4CCNCC4)nc32)cc1', 'inactive'),
  ('CN1CCN(c2ncc3nc(-c4ccccc4)c(=O)n(Cc4ccc(F)cc4)c3n2)CC1', 'inactive'),
  ('CC(=O)N1CCC2(CCN(Cc3ccccc3)CC2)CC1', 'inactive');

# fetch the recorded call for O=c1cnc2cnc(N3CCNCC3)nc2n1Cc1ccc(F)cc1 here
active

# fetch the recorded call for Cc1ccc(C(CC(=O)c2ccco2)SCCO)cc1 (stereo unspecified) here
inactive

# fetch the recorded call for Cn1c(/C(C#N)=C(\O)c2ccc(S(=O)(=O)N3CCCCC3)cc2)nc2ccccc21 here
active

# fetch the recorded call for CN(C)c1ncc2nc(-c3ccccc3)c(=O)n(Cc3ccc(F)cc3)c2n1 here
inactive

# fetch the recorded call for N#CCCn1c(=O)cnc2cnc(N3CCNCC3)nc21 here
inactive

###

- experimental_system: Cytochrome P450 3A4 (Homo sapiens)
- protocol_notes: Cytochrome panel assay with activity outcomes
- test_parameters: recombinant CYP, pro-luciferin dealkylation, luminescence, p450-cyp3a4; series mostly up to 57.1 µM
Hit rate of the full screen: of about 16,000 compounds, about 5,100 (32%) were called active. Inconclusive results (about 25%) are left out. The call rests on the fitted dose curve; in most records, active means well fitted curve in the direction sought with a large enough effect; inconclusive means small, poorly fitted or top-dose-only effect, or effect the other way; inactive means no such curve, though single readings can be large or run the other way. Some of the results follow.
A correct response names exactly one class from true = active, false = inactive

As a guide, the following entries are already answered.
INSERT INTO measurements (molecule, experimental_system, assigned_class) VALUES
  ('CC1=C(C(N)=O)C(c2ccccc2)n2nc(-c3ccncc3)nc2N1 (stereo unspecified)', 'Cytochrome P450 3A4 (Homo sapiens)', 'true'),
  ('Cc1nc2nc[nH]n2c(=O)c1NC(=O)CC12CC3CC(CC(C3)C1)C2', 'Cytochrome P450 3A4 (Homo sapiens)', 'false'),
  ('COc1ccc2c(c1)CCCC21NC(=O)N(CC(N)=O)C1=O (stereo unspecified)', 'Cytochrome P450 3A4 (Homo sapiens)', 'false'),
  ('CCOc1ccc(C(=O)CCC(=O)O)cc1', 'Cytochrome P450 3A4 (Homo sapiens)', 'false'),
  ('O=C(O)CSCNC(=O)CC12CC3CC(CC(C3)C1)C2', 'Cytochrome P450 3A4 (Homo sapiens)', 'true');

As a next step, examine the molecule that follows.
# fetch the recorded call for O=C(c1ccco1)N1CCN(c2cc(=O)n(C3CCCCC3)c(=O)[nH]2)CC1 here
false

###

- experimental_system: Cytochrome P450 3A4 (Homo sapiens) (UniProt P08684)
- protocol_notes: Cytochrome panel assay with activity outcomes; on activity, negative = inhibition: on the % scale 0 is the no-effect control and ±100 the full control effect
- test_parameters: recombinant CYP, pro-luciferin dealkylation, luminescence, p450-cyp3a4; series mostly up to 57.1 µM
- Protocol: The P450 gene superfamily is involved in the metabolism and clearance of xenobiotics. This assay used various human CYP P450 isozymes to measure the dealkylation of various pro-luciferin substrates to luciferin. The luciferin is then measured by luminescence after the addition of a luciferase detection reagent. […] Inhibitors and some substrates limit the production of luciferin, and decrease measured luminescence. […] 8, Detection, 1 sec, ViewLux luminescent read […]
Out of some 16,000 compounds screened, about 5,100 (32%) were called active. Roughly 25% stayed inconclusive and do not appear here. The list shows a part of the results.
Each record here notes measured activity, negative = inhibition.

INSERT INTO assay_data (chem_smiles, experimental_system, reported_measurement) VALUES
  ('CCCNC(=O)c1cc2c(C(F)(F)F)nn(C)c2s1', 'Cytochrome P450 3A4 (Homo sapiens) (UniProt P08684)', '19.2% [at 2.29 µM] (inactive)'),
  ('CC(=NCC(=O)O)c1ccccc1', 'Cytochrome P450 3A4 (Homo sapiens) (UniProt P08684)', '-4.83% [at 11.4 µM] (inactive)'),
  ('Nc1ncnc2c([C@@H]3O[C@@H](CO)[C@H](O)[C@@H]3O)nsc12', 'Cytochrome P450 3A4 (Homo sapiens) (UniProt P08684)', '-0.156% [at 11.4 µM] (inactive)'),
  ('O=C(COc1ccc(Cl)cc1)NCCC1=CCCCC1', 'Cytochrome P450 3A4 (Homo sapiens) (UniProt P08684)', '-14.7% [at 11.4 µM] (inactive)'),
  ('Cc1cc(OC(=O)c2ccccc2Br)cc(=O)n1C', 'Cytochrome P450 3A4 (Homo sapiens) (UniProt P08684)', '-13.2% [at 11.4 µM] (inactive)');

Value wanted: activity, negative = inhibition (Cytochrome P450 3A4 (Homo sapiens) (UniProt P08684)) of entry O=C1CCCC=C1[C@H](O)c1ccc([N+](=O)[O-])cc1
-12.2% [at 11.4 µM] (inactive)

Value wanted: activity, negative = inhibition (Cytochrome P450 3A4 (Homo sapiens) (UniProt P08684)) of entry Cc1cc(C)nc(SCCc2cccc[n+]2C)n1
-11% [at 11.4 µM] (inactive)

Value wanted: activity, negative = inhibition (Cytochrome P450 3A4 (Homo sapiens) (UniProt P08684)) of entry CCOC(=O)CCN1C(=O)[C@H]2[C@H]3[C@H](O)[C@H](O)C/C(=N/OC[C@@H](O)COCc4ccco4)[C@@H]3CC[C@@H]2C1=O
-16.7% [at 11.4 µM] (inactive)

Value wanted: activity, negative = inhibition (Cytochrome P450 3A4 (Homo sapiens) (UniProt P08684)) of entry CC(C)c1ccc(/C(C(=O)O)=C(\O)C(=O)O)cc1
-12.9% [at 11.4 µM] (inactive)

Value wanted: activity, negative = inhibition (Cytochrome P450 3A4 (Homo sapiens) (UniProt P08684)) of entry O=C1[C@H]2[C@H]3[C@H](O)[C@H](O)C/C(=N/OC[C@@H](O)COCc4ccco4)[C@@H]3CC[C@@H]2C(=O)N1C[C@@H]1CCCO1
-23.9% [at 11.4 µM] (inactive)

Value wanted: activity, negative = inhibition (Cytochrome P450 3A4 (Homo sapiens) (UniProt P08684)) of entry O=C1[C@H]2[C@H]3[C@H](O)[C@H](O)C/C(=N/OC[C@@H](O)COCc4ccco4)[C@H]3CC[C@@H]2C(=O)N1C[C@@H]1CCCO1
-13.4% [at 11.4 µM] (inactive)

###

- experimental_system: Cytochrome P450 3A4 (Homo sapiens)
- protocol_notes: Cytochrome panel assay with activity outcomes
- test_parameters: recombinant CYP, pro-luciferin dealkylation, luminescence, p450-cyp3a4; series mostly up to 57.1 µM
The campaign covered roughly 16,000 compounds. About 5,100 (32%) were called active. Not shown: some 25% with an inconclusive outcome. Calls come from the whole dose curve; as a rule, active = well fitted curve in the direction sought with a large enough effect; inconclusive = small, poorly fitted or top-dose-only effect, or effect the other way; inactive = no such curve, though single readings can be large or run the other way. This is one part of the list.
A correct response names exactly one class from active, inactive

As a guide, the following entries are already answered.
INSERT INTO results (compound, assigned_class) VALUES
  ('CC(=O)N1CCC2(CCCN(Cc3ccccc3)C2)CC1', 'inactive'),
  ('COc1ccc(O[C@H]2C=C[C@@H](c3ccccc3)O[C@H]2CO/N=C(/C)CCC(=O)OC[C@@H]2O[C@H](c3ccccc3)C=C[C@@H]2Oc2ccc(OC)cc2)cc1', 'active'),
  ('CC12CCC(C(=O)Nc3ncc([N+](=O)[O-])s3)(OC1=O)C2(C)C (stereo unspecified)', 'active'),
  ('CC(=O)N1CCC2(CC1)CN(Cc1ccccc1)C2', 'inactive'),
  ('Cc1nn(Cc2ccc(Cl)cc2)c(C)c1NC(=O)CSc1nc2c(c(C(F)(F)F)n1)CCc1ccccc1-2', 'active'),
  ('O=C(c1csnn1)N1CCC2(CCCN(Cc3ccccc3)C2)CC1', 'inactive'),
  ('O=C(O)[C@@H]1CCCNC1', 'inactive'),
  ('COc1ccc(C(C(=O)NC2CCCCC2)N(C(=O)c2sc(C)nc2C)c2ccc(OC)cc2)cc1 (stereo unspecified)', 'active');

# fetch the recorded call for CCC(C(=O)NC(C)(C)C)N(C(=O)Cn1nnc(-c2cccs2)n1)c1cnc2ccccc2c1 (stereo unspecified) here
active

# fetch the recorded call for COc1ccc(C(C(=O)NC2CCCCC2)N(C(=O)c2sc(C)nc2C)c2ccc(C(C)=O)cc2)cc1 (stereo unspecified) here
active

# fetch the recorded call for CCc1ccc2c(c1)c(N=NC1=NC(=O)CS1)c(O)n2CC here
inactive

# fetch the recorded call for CN(C)c1ccc(-c2cc(NCc3ccccc3)ncn2)cc1 here
active

# fetch the recorded call for COc1ccc(C(C(=O)NC2CCCCC2)N(C(=O)CCCC(=O)Nc2ccccn2)c2ccc3c(c2)OCCO3)cc1 (stereo unspecified) here
active

# fetch the recorded call for O=C(Nc1cnc2ccccc2c1)c1cccc(-n2cnnn2)c1 here
inactive
